These data points were gathered from paper PMC2276102.

# Tested on: cHPK1 (87 amino acids of the C-terminal part of HPK1) displayed on phage
# assay-explanation: Surface plasmon resonance analysis (BIACORE), HIS-tagged Ig-tail peptides on NTA sensor chip, cHPK1 phagemids injected
# Type: binding, murine
# experimental-context: binding of cHPK1 phage (10^9 cfu in TBS, injected 60 s) to immobilised HIS-tagged Ig-tail; 400 (±25) RUs peptide coupled; value taken 60 s after injection

substance	target-system	Injection after 60 s, Relative RUs, RUs
SPHRCRIHPRPSKTMPTSSRPGH- RCDASTH [Random peptide, HIS-tag deficient random peptide used as control, reference compound]	cHPK1 (87 amino acids of the C-terminal part of HPK1) displayed on phage	310
(6 H) KVKWIFSSVVQVKQTAIPDYRNMI- GQGA [IgG3, HIS-tagged synthetic cytoplasmic tail of IgG3]	cHPK1 (87 amino acids of the C-terminal part of HPK1) displayed on phage	744
HHHHHHKVKWVFSTPMQDTPQTFQDYA- NILQTRA [IgE, HIS-tagged synthetic peptide of the 28 amino acid long cytoplasmic tail of mIgE]	cHPK1 (87 amino acids of the C-terminal part of HPK1) displayed on phage	691

---

# key: entry, value: Injection after 60 s, Relative RUs
# System: cHPK1 (87 amino acids of the C-terminal part of HPK1) displayed on phage
# assay-explanation: Surface plasmon resonance analysis (BIACORE), HIS-tagged Ig-tail peptides on NTA sensor chip, cHPK1 phagemids injected
# Assay type: binding, murine
# experimental-context: binding of cHPK1 phage (10^9 cfu in TBS, injected 60 s) to immobilised HIS-tagged Ig-tail; 400 (±25) RUs peptide coupled; value taken 60 s after injection

substance	Injection after 60 s, Relative RUs [RUs]
(6 H) KVKWIFSSVVELKQTLVPEYKNMI- GQAP [IgG1, HIS-tagged synthetic cytoplasmic tail of IgG1]	819
(6 H) KVKWVFSTPMQDTPQYA- NILQTRA [IgEDTFQD, HIS-tagged IgE cytoplasmic tail peptide lacking the TFQD amino acids]	563
(6 H) KVKWIFSSVVELKQKISPDYRNMI- GQGA [IgG2b, HIS-tagged synthetic cytoplasmic tail of IgG2b]	276
(6 H) KVKWIFSSVVELKQTISPDYRNMI- GQGA [IgG2a, HIS-tagged synthetic cytoplasmic tail of IgG2a]	284

---

# key: entry, value: Elution after 100 s, Relative RUs
# Tested on: cHPK1 (87 amino acids of the C-terminal part of HPK1) displayed on phage
# assay-explanation: Surface plasmon resonance analysis (BIACORE), HIS-tagged Ig-tail peptides on NTA sensor chip, cHPK1 phagemids injected
# Assay type: binding, murine
# experimental-context: binding of cHPK1 phage (10^9 cfu in TBS) to immobilised HIS-tagged Ig-tail; value remaining after 100 s of elution
endpoint-label: Elution after 100 s, Relative RUs (RUs)

substance	endpoint-label	units-symbol	assay-result
(6 H) KVKWIFSSVVQVKQTAIPDYRNMI- GQGA [IgG3, HIS-tagged synthetic cytoplasmic tail of IgG3]	Elution after 100 s, Relative RUs	RUs	120
(6 H) KVKWIFSSVVELKQKISPDYRNMI- GQGA [IgG2b, HIS-tagged synthetic cytoplasmic tail of IgG2b]	Elution after 100 s, Relative RUs	RUs	72

---

# System: cHPK1 (87 amino acids of the C-terminal part of HPK1) displayed on phage
# assay-explanation: Surface plasmon resonance analysis (BIACORE), HIS-tagged Ig-tail peptides on NTA sensor chip, cHPK1 phagemids injected
# Format: binding, murine
# experimental-context: binding of cHPK1 phage (10^9 cfu in TBS) to immobilised HIS-tagged Ig-tail; value remaining after 100 s of elution

substance	units-symbol	Elution after 100 s, Relative RUs
HHHHHHKVKWVFSTPMQDTPQTFQDYA- NILQTRA [IgE, HIS-tagged synthetic peptide of the 28 amino acid long cytoplasmic tail of mIgE]	RUs	177
(6 H) KVKWIFSSVVELKQTISPDYRNMI- GQGA [IgG2a, HIS-tagged synthetic cytoplasmic tail of IgG2a]	RUs	68
(6 H) KVKWVFSTPMQDTPQYA- NILQTRA [IgEDTFQD, HIS-tagged IgE cytoplasmic tail peptide lacking the TFQD amino acids]	RUs	94
(6 H) KVKWIFSSVVELKQTLVPEYKNMI- GQAP [IgG1, HIS-tagged synthetic cytoplasmic tail of IgG1]	RUs	128
